Experiment: Primary qHTS for inhibitors of nuclear receptor binding SET domain protein 2 (NSD2) in an isogenic RCH-ACV NSD2 p.E1099K mutant (9B) (AID 1645876); further: nearly all actives have a fitted effect of over 70% in size
Settings: RCH-ACV (leukaemia line) NSD2 E1099K (9B) viability, CellTiter-Glo, 72 h; series mostly up to 44.9 µM
Inconclusive results are not listed. Calls of active or inactive are those of the source. The call rests on the fitted dose curve; in most records, active means well fitted inhibition curve with a large enough effect; inconclusive means small, poorly fitted or top-dose-only effect; inactive means flat fitted curve, though single readings scatter.
Respond using exactly one of the listed classes: active, inactive

Req: What was the test verdict on CC(O)/C=C/C1(O)C2(C)COC1(C)CC(O)C2 (stereo not drawn) ?
Resp: inactive

Req: What was the test verdict on COc1cc(Nc2nc3c(s2)CCCC3c2ccc(F)cc2)ccc1-n1cnc(C)c1 (stereo not drawn) ?
Resp: active

Req: What was the test verdict on CC1OC2OC(=O)C3(C)CC4=C(CO)C5=C(CC(=O)C4(C)C(C1=O)C23)C(C)(C)OC(=O)C5 (stereo not drawn) ?
Resp: inactive
